B1: FCHSD1 (parent)
chain: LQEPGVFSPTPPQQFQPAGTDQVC

Variants of: B1
Test: protein stability index of a GFP-peptide fusion (GPS, HEK-293T) (PSI 1-6); higher = more stable;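 note: lentivirally expressed fusions sorted by FACS into six bins by GFP to DsRed ratio, PSI derived from sequencing read proportions per bin multiplied by bin number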
Settings: c terminus: a fixed tail appended
Given measured protein stability index, output t if it is greater than or equal to 4 and f if not.

• P9F = t
• T10Y = f
• P11E = t
• T10W = f
• P11N = t
• S8W = f
• T10D = t
• Q13K = f
• P9H = t
• A18W = f
• T10S = t
• Q13Y = f
• P12V = f
• P12G = t
• P11M = t
• P9A = t
• F15G = t
• P9V = t
• P9T = t
• P12R = t
• T10M = f
• P12N = t
• T10Q = t
• S8R = t
• Q22W = f
• Q13S = t
• P9R = t
• F15C = t
• P12H = t
• T10A = t
• T10I = f
• P12Y = f
• Q14G = f
• P12F = f
